For each of the compounds below, state its Test C disease control rating (wheat powdery mildew).
- Test system: Blumeria graminis f. sp. tritici
- Assay Method Text: Test C: wheat powdery mildew, preventive spray on wheat seedlings
- Assay type: in vivo
- Protocol Conditions: 50 ppm, rated after 8 days, 100 = 100% disease control, 0 = no control
- Source text: General protocol for preparing test suspensions for Tests A-F: the test compounds were first dissolved in acetone in an amount equal to 3% of the final volume and then suspended at the desired concentration (in ppm) in acetone and purified water (50/50 mix by volume) containing 250 ppm of the surfactant PEG400 (polyhydric alcohol esters). The resulting test suspensions were then used in Tests A-F. The test suspension was sprayed to the point of run-off on wheat seedlings. […]
Write the value in % as a bare number.

Exercise: Returns the measured Test C disease control rating (wheat powdery mildew) for the input compound. Input: `Cc1nn(C)c(Nc2c(Cl)cc(Br)cc2[N+](=O)[O-])c1-c1ccc(F)cc1Cl`
Solution: 92

Exercise: Also check `Cc1nn(C)c(Nc2ccc(F)cc2[N+](=O)[O-])c1-c1ccc(F)cc1Br`
Solution: 92

Exercise: Also check `Cc1nn(C)c(Nc2c(Cl)cccc2[N+](=O)[O-])c1-c1ccc(F)cc1F`
Solution: 91

Exercise: Also check `Cc1nn(C)c(Nc2c(Cl)cc(F)cc2[N+](=O)[O-])c1-c1ccc(F)cc1F`
Solution: 89

Exercise: Also check `Cc1nn(C)c(Nc2c(Cl)cc(Cl)cc2[N+](=O)[O-])c1-c1ccc(F)cc1F`
Solution: 89

====

For each of the compounds below, state its Test A disease control rating (wheat leaf blotch).
- Test system: Septoria tritici
- Assay Method Text: Test A: wheat leaf blotch, preventive spray on wheat seedlings
- Format: in vivo
- Protocol Conditions: 50 ppm, 100 = 100% disease control, 0 = no control relative to controls
// return the numeric value with its unit appended

Exercise: Lookup: Test A disease control rating (wheat leaf blotch) / Septoria tritici / Cc1cc(F)c(Nc2c(-c3ccc(F)cc3F)c(C)nn2C)c([N+](=O)[O-])c1 [Compound 178]
Solution: 100%

Exercise: Also check Cc1nn(C)c(Nc2c(F)cccc2[N+](=O)[O-])c1-c1c(F)cc(F)cc1F [Compound 62]
Solution: 100%

Exercise: Also check Cc1cccc([N+](=O)[O-])c1Nc1c(-c2ccc(F)cc2F)c(C)nn1C [Compound 177]
Solution: 100%

Exercise: Also check Cc1ccc(Nc2c(-c3ccc(F)cc3Cl)c(C)nn2C)c([N+](=O)[O-])c1 [Compound 26]
Solution: 100%

Exercise: Also check Cc1nn(C)c(Nc2ccc(OC(C)C)cc2[N+](=O)[O-])c1-c1ccc(F)cc1Cl [Compound 104]
Solution: 60%

Exercise: Also check CCc1nn(C)c(Nc2c(F)cccc2[N+](=O)[O-])c1-c1ccc(F)cc1F [Compound 46]
Solution: 100%

Exercise: Also check Cc1nn(C)c(Nc2c(F)cc(F)cc2[N+](=O)[O-])c1-c1c(F)cccc1F [Compound 75]
Solution: 100%

Exercise: Also check Cc1nn(C)c(Nc2c(Cl)cc(Cl)cc2[N+](=O)[O-])c1-c1ccc(F)cc1Cl [Compound 59]
Solution: 100%

Exercise: Also check Cc1nn(C)c(Nc2c(Cl)cc(Br)cc2[N+](=O)[O-])c1-c1ccc(F)cc1F [Compound 55]
Solution: 100%

Exercise: Also check Cc1nn(C)c(Nc2c(Cl)cc(Cl)cc2[N+](=O)[O-])c1-c1ccc(F)cc1F [Compound 101]
Solution: 100%

Exercise: Also check Cc1nn(C)c(Nc2c(F)cc(F)cc2[N+](=O)[O-])c1-c1ccc(Cl)cc1Cl [Compound 9]
Solution: 100%

Exercise: Also check CCc1nn(C)c(Nc2ccc(C)cc2[N+](=O)[O-])c1-c1ccc(F)cc1F [Compound 175]
Solution: 100%

Exercise: Also check Cc1nn(C)c(Nc2c(F)cc(F)cc2[N+](=O)[O-])c1-c1ccc(F)cc1F [Compound 58]
Solution: 100%

Exercise: Also check Cc1nn(C)c(Nc2c(F)cc(F)cc2[N+](=O)[O-])c1-c1ccc(Cl)cc1F [Compound 13]
Solution: 100%

Exercise: Also check Cc1nn(C)c(Nc2c(Cl)cccc2[N+](=O)[O-])c1-c1c(F)cccc1Cl [Compound 38]
Solution: 100%

Exercise: Also check Cc1cc(Cl)c(Nc2c(-c3c(F)cccc3Cl)c(C)nn2C)c([N+](=O)[O-])c1 [Compound 24]
Solution: 100%

Exercise: Also check Cc1nn(C)c(Nc2c(F)cccc2[N+](=O)[O-])c1-c1c(F)cc(C#N)cc1F [Compound 114]
Solution: 100%

Exercise: Also check Cc1nn(C)c(Nc2c([N+](=O)[O-])ccc(F)c2F)c1-c1ccc(F)cc1Cl [Compound 7]
Solution: 100%

Exercise: Also check COc1ccc(-c2c(C)nn(C)c2Nc2c(C)cccc2[N+](=O)[O-])c(Cl)c1 [Compound 183]
Solution: 100%

Exercise: Also check Cc1nn(C)c(Nc2c(Cl)cc(F)cc2[N+](=O)[O-])c1-c1ccc(Cl)cc1F [Compound 176]
Solution: 100%

Exercise: Also check Cc1nn(C)c(Nc2c(F)cc(Cl)cc2[N+](=O)[O-])c1-c1c(F)cccc1F [Compound 98]
Solution: 100%

Exercise: Also check Cc1cccc([N+](=O)[O-])c1Nc1c(-c2ccc(F)cc2Br)c(C)nn1C [Compound 42]
Solution: 100%

Exercise: Also check Cn1nc(C#N)c(-c2ccc(F)cc2Cl)c1Nc1c(F)cccc1[N+](=O)[O-] [Compound 122]
Solution: 100%

Exercise: Also check COc1ccc(-c2c(C)nn(C)c2Nc2c(Cl)cc(Cl)cc2[N+](=O)[O-])c(Cl)c1 [Compound 65]
Solution: 94%

Exercise: Also check Cc1cc(F)c(Nc2c(-c3ccc(Cl)cc3Cl)c(C)nn2C)c([N+](=O)[O-])c1 [Compound 143]
Solution: 99%

Exercise: Also check CCc1nn(C)c(Nc2c(F)cc(F)cc2[N+](=O)[O-])c1-c1ccc(F)cc1F [Compound 50]
Solution: 100%

Exercise: Also check COc1cc(Cl)c(Nc2c(-c3ccc(F)cc3Cl)c(C)nn2C)c([N+](=O)[O-])c1 [Compound 80]
Solution: 100%

Exercise: Also check Cc1nn(C)c(Nc2ccc(Cl)cc2[N+](=O)[O-])c1-c1ccc(F)cc1Cl [Compound 92]
Solution: 100%

Exercise: Also check COc1ccc(-c2c(C)nn(C)c2Nc2c(F)cccc2[N+](=O)[O-])c(Cl)c1 [Compound 27]
Solution: 100%

Exercise: Also check Cc1nn(C)c(Nc2c(Cl)cccc2[N+](=O)[O-])c1-c1ccc(F)cc1Cl [Compound 108]
Solution: 100%
